- System: BUB1
- settings: concentration: 1 μM, replicates: in singlicate; n = 1;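 also: KINOMEscan kinase panel screen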
Mark 0 for %Inh values under 20%, and 1 for everything at or above.

1. COC(=O)Nc1nc2ccc(Oc3ccc(NC(=O)Nc4cc(C(F)(F)F)ccc4F)cc3)cc2n1C.Cl
1
2. O=C(O)C(F)(F)F.O=C(O)C(F)(F)F.O=c1[nH]ccc2nc(N[C@@H]3CCCNC3)nc(Nc3ccc(S(=O)(=O)N4CCOCC4)cc3)c12
1
3. COCCOCCOc1cc2ncc3c4ccc(C#N)cc4[nH]c3c2cc1OC
1
4. CCCCc1nn2ncccc2c1-c1ccnc(Nc2ccc(N3CCN(C)CC3)cc2)n1
1
5. Cl.Cl.NCC(NCc1ccc(-c2ccnc3[nH]ccc23)s1)c1ccccc1 (stereo not drawn)
1
6. O=C(Nc1cccc(Oc2ccc3nc(NC(=O)C4CC4)cn3n2)c1)c1ccccc1C(F)(F)F
0
7. Cc1ccc(F)c(C(=O)Nc2cccc(-c3nn4ccccc4c3-c3ccnc(Nc4cccc(F)c4)n3)c2)c1F
1
8. c1ccc(-c2cnc3nccnn23)cc1
0
9. COc1cc(Nc2ncc3c(C)nc(-c4cc5ccccc5[nH]4)n3n2)cc(OC)c1OC
0
10. Cn1cc(-c2ccc3c(c2)CCN3C(=O)Cc2cccc(Cl)c2)c2c(N)ncnc21
0
11. CN(C)Cc1ccc(-c2ccc3c(Nc4ccc(Oc5ccccn5)cc4)ccnc3c2)o1
0
12. COc1ccc(Nc2nccc(N3CCC(NC(=O)Nc4cccc(OC)c4)C3)n2)cc1 (stereo not drawn)
1
13. O=c1[nH]cc(-c2ccc(N3CCOCC3)cc2)c2sc(-c3cn[nH]c3)cc12
0
14. COc1cccc(NC(=O)NC2CCN(c3ccnc(Nc4cc(OC)c(OC)c(OC)c4)n3)C2)c1 (stereo not drawn)
0
15. COc1cc(Nc2nccc(-c3c(-c4cccc(NC(=O)c5c(F)cccc5F)c4)nn4ncccc34)n2)cc(OC)c1OC
1
16. COc1ccc(-c2coc3ccc(-c4nnc(SCc5ccc(OC)c(C(F)(F)F)c5)o4)cc23)cc1
0
17. CCn1c(-c2nonc2N)nc2c(C#CC(C)(C)O)nc(OC[C@H](N)c3ccccc3)cc21
0
18. COc1cc(Nc2nccc(N3CCC(NC(=O)Nc4cccc(C(C)=O)c4)C3)n2)cc(OC)c1OC (stereo not drawn)
1
19. Cl.NC(=O)c1cccc(Nc2nccc(Nc3ccc(Oc4c(Cl)cccc4Cl)c(Cl)c3)n2)c1
0
20. CC(=O)Nc1nc2cnc(Nc3cc(NC(=O)c4cccc(C5(C#N)CC5)c4Cl)ccc3C)nc2s1
0

###

- Tested on: SGK2
- settings: concentration: 1 μM, replicates: in singlicate; n = 1
// values below are reported %Inh
measured-parameter: %Inh (%)

1) CC(C)(C)c1ccc2nccc(Nc3cccc(O)c3)c2c1
1
2) O=C(Nc1cccc(-c2nn3ccccc3c2-c2ccnc(Nc3cccc(F)c3)n2)c1)c1c(F)ccc(F)c1Cl
0
3) Cn1cc(-c2ccc3c(c2)CCN3C(=O)Cc2cccc(Cl)c2)c2c(N)ncnc21
0
4) Nc1ncnc2c1nc(-c1ccccc1)n2-c1ccccc1
0
5) c1ccc(-c2cnc3nccnn23)cc1
0
6) Oc1cc(Nc2ccnc3cc(I)ccc23)ccc1F
2
7) Cc1cccc(Nc2nc(N[C@H]3CCNC3)ncc2C(N)=O)c1.Cl
12
8) O=C(Nc1n[nH]c2cc(-c3ccoc3)ccc12)C1CC1
5
9) O=C(Nc1ccccc1F)NC1CCN(c2ccnc(Nc3ccc(F)cc3)n2)CC1
0

###

- Tested on: PIK3CG
- settings: concentration: 1 μM, replicates: in singlicate; n = 1
// values below are reported %Inh
measured-parameter: %Inh

1. Cn1cc(-c2[nH]c3cc(NC(=O)[C@H](N)C4CCCCC4)cc4c3c2C=NNC4=O)cn1
0%
2. CCc1ccc(-c2ccc3c(c2)-c2c(cnn2C)S(=O)(=O)N3C)cc1
2%
3. c1ccc(Oc2ccc(Nc3ccnc4cc(-c5ccc(CNCCN6CCOCC6)o5)ccc34)cc2)nc1
0%
4. CN(c1ccc(NC(=O)Nc2cc(C(F)(F)F)ccc2F)cc1)c1ccnc(Nc2ccc(S(N)(=O)=O)cc2)n1
31%
5. COc1ccc(Nc2nccc(N3CCC(NC(=O)Nc4cccc(OC)c4)C3)n2)cc1 (centres unmarked)
0%
6. CSc1cccc2c(-c3ccncn3)c(-c3ccc(F)cc3)nn12
0%
7. Cl.Cl.NCC(C(=O)Nc1cc(Br)c(-c2ccnc3[nH]ccc23)s1)c1ccccc1 (centres unmarked)
0%
8. Fc1ccc(-c2ncn(C3CCNCC3)c2-c2ccnc(Oc3ccc(-c4ccccc4)cc3)n2)cc1
39%

###

- System: NEK4
- settings: concentration: 1 μM, replicates: in singlicate; n = 1
measured-parameter: %Inh (%)

1) CN1CCN(CCCNc2nccc(-c3c(-c4ccc(F)cc4)nn4cc(C(F)(F)F)ccc34)n2)CC1 [GW621581]
0
2) c1ccc(-c2n[nH]cc2Nc2ccnc3ccccc23)nc1 [GW694077]
0
3) COc1cc(Nc2nccc(N3CCC(NC(=O)Nc4cccc(C(C)=O)c4)C3)n2)cc(OC)c1OC (stereo not shown) [GSK1379753]
30
4) COC(=O)Nc1nc2cc(Oc3ccc(NC(=O)Nc4cc(C(F)(F)F)ccc4F)cn3)ccc2[nH]1.Cl.Cl [GW681170]
0

###

- Test system: MRCKA
- settings: concentration: 1 μM, replicates: in singlicate; n = 1
measured-parameter: %Inh (%)

1. CC(C)(C)c1ccc2nccc(Nc3cccc(O)c3)c2c1 [GW856795]
0
2. Cc1cccc(NC(=O)Nc2ccc(Oc3ncnc4ccn(C)c34)cc2)c1
0
3. CNC(=O)c1ccccc1Nc1nc(Nc2ccc(N3CCOCC3)cc2)ncc1Cl.Cl [GSK1576028]
6
4. COc1cc(Nc2nccc(N3CCC(NC(=O)Nc4cccc(C(C)=O)c4)C3)n2)cc(OC)c1OC (centres unmarked) [GSK1379753]
18
5. O=C(Nc1cccc(Oc2ccc3nc(NC(=O)C4CC4)cn3n2)c1)c1ccccc1C(F)(F)F
24
6. Cn1cc(-c2ccc3c(c2)CCN3C(=O)Cc2cccc(F)c2)c2c(N)ncnc21 [GSK2603358]
5
7. CC(C)c1nc(-c2cccc(NS(=O)(=O)c3c(F)cccc3F)c2F)c(-c2ccnc(Nc3ccc(N4CCOCC4)nc3)n2)s1 [GSK2008607]
0
8. O=C(O)C(F)(F)F.O=C(O)C(F)(F)F.O=c1[nH]ccc2nc(N[C@@H]3CCCNC3)nc(Nc3ccc(S(=O)(=O)N4CCOCC4)cc3)c12 [GSK2177277]
35
9. COc1ccc(Nc2nccc(NCCNC(=O)c3cc4ccccc4s3)n2)cc1 [GSK1379896]
21
10. CSc1cccc2c(-c3ccncn3)c(-c3ccc(F)cc3)nn12 [GW514786]
25
11. Cc1ccc(C)c(NC(=O)NC2CCN(c3ccnc(Nc4ccc(F)cc4)n3)C2)c1 (centres unmarked) [GSK1379720]
11
12. Nc1ncnc2c1nc(-c1ccccc1)n2-c1ccccc1 [SKF-97293]
0
13. CC(=O)Nc1nc2cnc(Nc3cc(NC(=O)c4cccc(C5(C#N)CC5)c4Cl)ccc3C)nc2s1
5
14. c1ccc(-c2n[nH]cc2Nc2ccnc3ccccc23)nc1 [GW694077]
18
15. COc1cccc(C(=O)Nc2cccc(Oc3ccc4nc(NC(=O)C5CC5)cn4n3)c2)c1
21
16. COc1cc(Nc2ncc3c(C)nc(-c4cc5ccccc5[nH]4)n3n2)cc(OC)c1OC [GW869516]
4
17. O=c1[nH]cc(-c2ccc(N3CCOCC3)cc2)c2sc(-c3cn[nH]c3)cc12 [GSK2276055]
0

###

- System: ERBB3
- settings: concentration: 1 μM, replicates: in singlicate; n = 1
// values below are reported %Inh
measured-parameter: %Inh (%)

1. Nc1ncc(-c2ccc3nccc(-c4ccncc4)c3c2)cc1S(=O)(=O)N1CCOCC1
0
2. COc1ccc(-c2coc3ccc(-c4nnc(SCc5ccc(OC)c(C(F)(F)F)c5)o4)cc23)cc1
28
3. NCCCC(NC(=O)c1cc(Br)c(-c2ccnc3[nH]ccc23)s1)c1ccccc1.O=C(O)C(F)(F)F.O=C(O)C(F)(F)F (centres unmarked)
0
4. O=C(Nc1n[nH]c2cc(-c3ccoc3)ccc12)C1CC1
0
5. COCCOCCOc1cc2ncc3c4ccc(C#N)cc4[nH]c3c2cc1OC
0

###

// values below are reported %Inh
- System: TNK1
- settings: concentration: 1 μM, replicates: in singlicate; n = 1
measured-parameter: %Inh (%)

1. O=C(Nc1n[nH]c2nc(-c3ccc(O)cc3)ccc12)C1CC1 [SB-710363]
0
2. Clc1ccc(-c2nn3ncccc3c2-c2ccnc(Nc3ccc4c(c3)OCCO4)n2)cc1 [GW829116]
46
3. COc1cc(Nc2nccc(-c3c(-c4cccc(NC(=O)c5c(F)cccc5F)c4)nn4ncccc34)n2)cc(OC)c1OC [GSK327238]
100
4. C[C@@H]1CC[C@@H](C(=O)Nc2ccccc2)CN1c1cc(-c2ccc3c(N)n[nH]c3c2)nc(N)n1 [GSK2286062]
0
5. CSc1cccc2c(-c3ccncn3)c(-c3ccc(F)cc3)nn12 [GW514786]
8
6. Fc1ccc(-c2ncn(C3CCNCC3)c2-c2ccnc(Oc3ccc(-c4ccccc4)cc3)n2)cc1 [SB-245391]
10
7. CN(C)S(=O)(=O)c1cc(-c2ccc3nccc(-c4cccc(S(N)(=O)=O)c4)c3c2)cnc1N [GSK1669921]
42
8. COc1cc(Nc2ncc3c(C)nc(-c4cc5ccccc5[nH]4)n3n2)cc(OC)c1OC [GW869516]
49
9. CC(C)(C)c1ccc2nccc(Nc3cccc(O)c3)c2c1 [GW856795]
19
10. COc1ccc(CNC(=O)NC2CCN(c3ccnc(Nc4ccc(F)cc4)n3)CC2)cc1 [GSK1379788]
9
11. Cc1ccc(C(=O)Nc2ccc(Nc3ccnc4cc(-c5nccs5)ccc34)cc2O)cc1.Cl [GW494702]
46
12. CCn1c(-c2nonc2N)nc2c(C#CC(C)(C)O)nc(OC[C@H](N)c3ccccc3)cc21 [GSK943949]
0
13. O=C(Nc1cccc(-c2nn3ccccc3c2-c2ccnc(Nc3cccc(C(F)(F)F)c3)n2)c1)c1c(F)cccc1F [GSK292658]
75
14. CN(C)Cc1ccc(-c2ccc3c(Nc4ccc(Oc5ccccn5)cc4)ccnc3c2)o1 [GW567148]
29
15. Cl.c1ccc(-c2ccc3c(Nc4ccc5[nH]ncc5c4)ccnc3c2)nc1 [GW440137]
2
16. Cn1cc(-c2ccc3c(c2)CCN3C(=O)Cc2cccc(Cl)c2)c2c(N)ncnc21 [GSK2606590]
11
17. Cl.Cl.NCC(NCc1ccc(-c2ccnc3[nH]ccc23)s1)c1ccccc1 (stereo not shown) [GSK1321565]
0
18. O=C(Nc1cccc(-c2nn3ccccc3c2-c2ccnc(Nc3cccc(F)c3)n2)c1)c1c(F)ccc(F)c1Cl [GSK357952]
91.6
19. Nc1ncc(-c2cccnc2)c2scc(-c3ccc4c(c3)CCN4C(=O)Cc3ccccc3)c12 [GSK683281]
19
20. Cc1occc1-c1ncc(OC[C@@H](N)Cc2c[nH]c3ccccc23)cc1-c1ccc2[nH]nc(C)c2c1.O=C(O)C(F)(F)F [GSK682037]
15
21. CC(C)c1nc(-c2cccc(NS(=O)(=O)c3c(F)cccc3F)c2F)c(-c2ccnc(Nc3ccc(N4CCOCC4)nc3)n2)s1 [GSK2008607]
100
22. Cl.Cl.NCC(C(=O)Nc1cc(Br)c(-c2ccnc3[nH]ccc23)s1)c1ccccc1 (stereo not shown) [GSK1269851]
6
23. Cc1ccc(C(=O)N2CC[C@@H](O)C2)cc1-n1c(C)cc(OCc2ccc(F)cc2F)c(Br)c1=O
0
24. FC(F)(F)c1ccc(/C=C/c2cncnc2Nc2ccc3[nH]c(Cc4ccccc4)nc3c2)cc1 [GW709199]
0
25. Nc1ncc(-c2ccc3nccc(-c4ccncc4)c3c2)cc1S(=O)(=O)N1CCOCC1 [GSK1627798]
0
26. O=C(NC1CCN(c2ccnc(Nc3ccc(F)cc3)n2)C1)c1cc2ccccc2s1 (stereo not shown) [GSK1379716]
0
27. O=C(O)C(F)(F)F.O=C(O)C(F)(F)F.O=c1[nH]ccc2nc(N[C@@H]3CCCNC3)nc(Nc3ccc(S(=O)(=O)N4CCOCC4)cc3)c12 [GSK2177277]
73
28. Cc1cccc(NC(=O)Nc2ccc(Oc3ncnc4ccn(C)c34)cc2)c1
0
29. NCCCC(NC(=O)c1cc(Br)c(-c2ccnc3[nH]ccc23)s1)c1ccccc1.O=C(O)C(F)(F)F.O=C(O)C(F)(F)F (stereo not shown) [GSK1287544]
0
30. CCn1c(-c2nonc2N)nc2c(C#CC(C)(C)O)ncc(OCCCCN)c21.O=C(O)C(F)(F)F.O=C(O)C(F)(F)F [GSK507274]
0
31. COc1cc(Nc2nccc(N3CCC(NC(=O)Nc4cccc(C(C)=O)c4)C3)n2)cc(OC)c1OC (stereo not shown) [GSK1379753]
21
